Biological target: UniProt:Q13822
Assay: Human ATX enzyme inhibition assay (fluorescence quenching, MR121 substrate)
Format: biochemical
Settings: 30 nM ATX, MR121 substrate, 30° C., pH 8.0; read-out: ATX IC50
observable: IC50 (nM)
Please give a number only; it is taken to be in nM.

Example results:
O=C(c1cc(OCC2CCOCC2)nc(C2CC2)c1)N1CC2=C(C1)CN(C(=O)N1CCc3c(cn[nH]c3=O)C1)C2 [Example 2.08]
10
CC(C)(C)C(=O)Nc1cc(C(F)(F)F)cnc1COC(=O)N1CC2=C(C1)CN(C(=O)c1ccc3[nH]nnc3c1)C2 [Example 1.04]
8
NS(=O)(=O)C1(F)CCN(C(=O)N2CC3=C(CN(C(=O)c4cc(OCC5CCOCC5)nc(C5CC5)c4)C3)C2)CC1 [Example 6.00]
3

Okay, now this molecule:
Prompt line: Sample O=C1NC(=O)N2CCN(C(=O)N3CC4=C(CN(C(=O)c5cc(OCC6CCOCC6)nc(C6CC6)c5)C4)C3)CC12 (stereo not shown) [Example 2.14] — what was its IC50?
Response line: 122

* * *

Molecular target: ATX (human His-tagged) (Homo sapiens (Human), UniProt Q13822)
Experiment: Human ATX enzyme inhibition assay (fluorescence quenching, MR121 substrate)
Format: biochemical
observable: pIC50
Notebook: values listed as pIC50 are -log10 of the concentration (mol/L).

Prompt line: Sample "O=C(c1cc(OCC2CCOCC2)nc(C2CC2)c1)N1CC2=C(CC(C(=O)N3CCc4[nH]nnc4C3)C2)C1" — what was its pIC50?
Response line: 8.00

* * *

Each entry below carries its reported pIC50.
Target: UniProt Q13822
Experiment: Human ATX enzyme inhibition assay (fluorescence quenching, MR121 substrate)
Format: biochemical
Conditions: 30 nM ATX, MR121 substrate, 30° C., pH 8.0; read-out: ATX IC50
Notebook: values listed as pIC50 are -log10 of the concentration (mol/L).

NS(=O)(=O)C1CCN(C(=O)C2CC3=C(C2)CN(C(=O)c2cc(OCC4CCOCC4)nc(C4CC4)c2)C3)CC1 [Example 4.00]
7.96
O=C1NS(=O)(=O)c2cc(C(=O)N3CC4=C(CN(C(=O)c5cc(OCC6CCOCC6)nc(C6CC6)c5)C4)C3)ccc21 [Example 1.10]
7.89
CC(C)(C)C(=O)Nc1cc(C(F)(F)F)cnc1COC(=O)N1CCC2=C(CCN(C(=O)c3ccc4[nH]nnc4c3)C2)C1 [Example 1.07]
7.77
O=C(OCc1c[nH]nn1)N1CC2=C(C1)CN(C(=O)c1cc(OCC3CCOCC3)nc(C3CC3)c1)C2 [Example 3.00]
7.44
O=C(c1cc(OCC2CCOCC2)nc(C2CC2)c1)N1CC2=C(C1)CN(C(=O)c1ccc3c(O)noc3c1)C2 [Example 1.09]
8.40

Prompt line: API: value(readout= pIC50, system= UniProt Q13822, query= O=C(c1cc(OCC2CCOCC2)nc(C2CC2)c1)N1CC2=C(C1)CN(C(=O)N1CCc3onc(O)c3C1)C2 [Example 2.13] )
Response line: 7.01

Prompt line: API: value(readout= pIC50, system= UniProt Q13822, query= O=C(c1cc(OCC2CCOCC2)nc(C2CC2)c1)N1CC2=C(C1)CN(C(=O)N1CCc3[nH]nnc3C1)C2 [Example 2.02] )
Response line: 8.22

* * *

Each entry below carries its reported IC50.
Biological target: ATX (human His-tagged) (Homo sapiens (Human), UniProt Q13822)
Test: Human ATX enzyme inhibition assay (fluorescence quenching, MR121 substrate)
Assay type: biochemical
Conditions: 30 nM ATX, MR121 substrate, 30° C., pH 8.0; read-out: ATX IC50
Could you kindly put the unit after your number?

Example results:
CC(C)(C)C(=O)Nc1cc(Cl)c(Cl)nc1COC(=O)N1CC2=C(C1)CN(C(=O)c1ccc3[nH]nnc3c1)C2
7 nM
CC(C)(C)C(=O)Nc1cc(C(F)(F)F)cnc1COC(=O)N1CC2=C(C1)CN(C(=O)N1CCc3[nH]nnc3C1)C2
5 nM
O=C(c1cc(OCC2CCOCC2)nc(C2CC2)c1)N1CC2=C(C1)CN(C(=O)[C@@H]1CCc3[nH]nnc3C1)C2
5 nM

Prompt line: Sample "NS(=O)(=O)C1CCN(C(=O)N2CC3=C(CN(C(=O)c4cc(OCC5CCOCC5)nc(C5CC5)c4)C3)C2)CC1" — what was its IC50?
Response line: 5.5 nM

Data provenance is patent US10800786B2.
